B1: VH:VL chains; a variant is named by its letters at X, in order (parent)
chain 1: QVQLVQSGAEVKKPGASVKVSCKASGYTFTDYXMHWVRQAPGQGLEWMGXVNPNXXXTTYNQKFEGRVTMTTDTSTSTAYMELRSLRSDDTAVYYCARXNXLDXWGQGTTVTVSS
chain 2: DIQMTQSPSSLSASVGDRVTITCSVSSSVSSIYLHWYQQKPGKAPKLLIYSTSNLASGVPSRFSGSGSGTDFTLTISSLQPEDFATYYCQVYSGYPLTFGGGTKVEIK

variants of: B1; experiment: yeast display scFab, FACS + sequencing
reportedProperty: non-specific binding call

Below, 8 variants whose answers are already recorded.
ARRRGSAA
binds
FTGGASGV chain 1 V111I
no binding
VRERGDGV
no binding
YRRGDSGV
binds
YRTRDAWV
binds
FRGRSSGV
binds
STGTGALA
no binding
VKGRADGS
no binding

Next item in the queue.
What value of non-specific binding call has been recorded for this entry: VTTKSDLA
no binding
